Structures can show the parent of a compound that is named as a salt.
Endpoint name: melting point

Guide cases for melting point, answers given:
Compound | melting point
Nc1cc(N2CCCNCC2)ccc1S(=O)(=O)c1cccc(F)c1 (as salt: hydrochloride) | 106 to 108 °C
CN1CCN(c2ccc(S(=O)(=O)c3ccccc3)c(N)c2)CC1 | 90 to 93 °C

Reported melting point for CNc1cc(N2CCCNCC2)ccc1S(=O)(=O)c1cccc(F)c1 (as salt: HCl) : what is it?
153 to 154 °C

Reported melting point for CN1CCN(c2ccc(S(=O)(=O)c3ccc(F)cc3)c(N)c2)CC1 : what is it?
85 to 89 °C

Reported melting point for Nc1cc(N2CCNCC2)ccc1S(=O)(=O)c1ccccc1 (as salt: salt) : what is it?
165 to 166 °C
